# tested-target: EGFR (Homo sapiens (Human), UniProt P00533)
# Sequence (P00533 25-1210): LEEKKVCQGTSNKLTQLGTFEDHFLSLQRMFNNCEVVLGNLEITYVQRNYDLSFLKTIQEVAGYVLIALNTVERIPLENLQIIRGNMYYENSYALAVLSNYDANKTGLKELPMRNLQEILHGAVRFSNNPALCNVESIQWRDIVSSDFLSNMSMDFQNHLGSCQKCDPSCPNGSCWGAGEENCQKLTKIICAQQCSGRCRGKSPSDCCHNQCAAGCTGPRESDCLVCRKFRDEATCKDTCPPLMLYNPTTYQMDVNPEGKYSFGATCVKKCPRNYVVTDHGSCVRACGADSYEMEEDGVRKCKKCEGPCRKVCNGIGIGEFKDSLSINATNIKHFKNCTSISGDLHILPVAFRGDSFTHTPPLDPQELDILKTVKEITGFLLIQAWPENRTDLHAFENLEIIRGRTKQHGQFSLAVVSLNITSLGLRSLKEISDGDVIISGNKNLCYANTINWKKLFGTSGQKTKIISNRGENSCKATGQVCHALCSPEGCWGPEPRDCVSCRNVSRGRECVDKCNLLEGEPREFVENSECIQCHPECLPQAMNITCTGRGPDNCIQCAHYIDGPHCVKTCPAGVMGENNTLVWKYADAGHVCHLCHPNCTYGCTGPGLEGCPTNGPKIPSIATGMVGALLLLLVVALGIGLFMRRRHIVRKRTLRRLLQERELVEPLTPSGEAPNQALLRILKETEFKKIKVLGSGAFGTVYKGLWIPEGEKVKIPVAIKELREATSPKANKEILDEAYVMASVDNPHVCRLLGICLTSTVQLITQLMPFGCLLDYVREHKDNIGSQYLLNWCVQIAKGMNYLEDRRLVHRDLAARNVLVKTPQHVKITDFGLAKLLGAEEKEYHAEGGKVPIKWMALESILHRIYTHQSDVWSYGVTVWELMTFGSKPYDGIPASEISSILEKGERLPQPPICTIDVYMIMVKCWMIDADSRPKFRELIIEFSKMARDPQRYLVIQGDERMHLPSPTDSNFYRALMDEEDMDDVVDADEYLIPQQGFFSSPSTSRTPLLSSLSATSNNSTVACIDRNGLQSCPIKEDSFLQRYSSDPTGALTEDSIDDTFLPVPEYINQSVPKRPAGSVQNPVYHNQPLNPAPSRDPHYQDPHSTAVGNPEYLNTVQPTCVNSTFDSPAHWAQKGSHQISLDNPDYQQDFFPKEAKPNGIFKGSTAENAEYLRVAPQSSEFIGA
# procedure-details: A549 cell lysis and immunoassay, phospho-EGFR (Y1068) inhibition
# Assay type: cell-based
# Design: key: X: EGFR bound and autophosphoration of EGFR inhibited in cells
# details: A549 cells, 1 μM

compound: C[S+]([O-])c1c(F)c(F)c(F)c(F)c1C(=O)N1CCC[C@@H](n2nc(-c3ccc(Oc4ccccc4)cc3)c3c(N)ncnc32)C1 (stereo partly shown) [Compound I-36]
pEGFR inhibition (A549, 1 μM, 24 h): X
//
compound: CS(=O)(=O)c1c(F)c(F)c(F)c(F)c1C(=O)NCCn1nc(-c2ccc(Oc3ccccc3)cc2)c2c(N)ncnc21 [Compound I-38]
pEGFR inhibition (A549, 1 μM, 24 h): X
//
compound: C[S@+]([O-])c1c(F)c(F)c(F)c(F)c1C(=O)Nc1ncnc2[nH]ccc12 (racemic) [Compound I-46]
pEGFR inhibition (A549, 1 μM, 24 h): X
//
compound: CS(=O)(=O)c1c(F)c(F)c(F)c(F)c1Nc1cc2c(Nc3ccc(F)c(Cl)c3)ncnc2cc1O[C@H]1CCOC1 [Compound I-2]
pEGFR inhibition (A549, 1 μM, 24 h): X

---

# tested-target: JAK3 (Homo sapiens (Human), UniProt P52333)
# Sequence (P52333 781-1124): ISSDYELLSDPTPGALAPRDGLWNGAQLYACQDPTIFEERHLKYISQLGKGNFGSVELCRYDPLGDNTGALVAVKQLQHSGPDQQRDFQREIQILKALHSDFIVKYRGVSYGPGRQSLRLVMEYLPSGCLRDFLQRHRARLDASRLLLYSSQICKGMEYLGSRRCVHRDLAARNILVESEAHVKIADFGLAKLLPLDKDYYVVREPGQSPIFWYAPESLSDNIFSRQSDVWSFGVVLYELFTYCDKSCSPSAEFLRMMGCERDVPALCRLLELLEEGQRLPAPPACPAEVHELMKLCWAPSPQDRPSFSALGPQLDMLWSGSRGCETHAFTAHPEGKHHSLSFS
# procedure-details: HTRF KinEASE-TK kinase assay, JAK3
# Format: biochemical
# details: read-out: % JAK3 Remaining activity vs DMSO (1 μM, 3 h)
metric-name: remaining activity at 1 µM

Here is how some molecules turned out for remaining activity at 1 µM.
compound-structure-string: CN(CCn1nc(-c2ccc(Oc3ccccc3)cc2)c2c(N)ncnc21)C(=O)c1c(F)c(F)c(F)c(F)c1S(=O)(=O)N(C)C
result: > 90%

compound-structure-string: CN(CCn1nc(-c2ccc(Oc3ccccc3)cc2)c2c(N)ncnc21)c1c(F)c(F)c(F)c(F)c1S(C)(=O)=O
result: > 90%

compound-structure-string: NS(=O)(=O)c1c(F)c(F)c(F)c(F)c1C(=O)NCCNc1ncnc2[nH]ccc12
result: 50 to 90%

compound-structure-string: CS(=O)(=O)c1c(F)c(F)c(F)c(F)c1C(=O)n1ccc2c(N)ncnc21
result: > 90%

compound-structure-string: COCCOc1ccc(Nc2ncc(F)c(NCCCNS(=O)(=O)c3c(F)c(F)c(F)c(F)c3C(F)F)n2)cc1
result: < 50%

// remaining activity at 1 µM lookup, key: CN(C)S(=O)(=O)c1c(F)c(F)c(F)c(F)c1C(=O)NCCNc1ncnc2[nH]ccc12
< 50%

---

# tested-target: BMX (Homo sapiens (Human), UniProt P51813)
# Sequence (P51813 whole entry): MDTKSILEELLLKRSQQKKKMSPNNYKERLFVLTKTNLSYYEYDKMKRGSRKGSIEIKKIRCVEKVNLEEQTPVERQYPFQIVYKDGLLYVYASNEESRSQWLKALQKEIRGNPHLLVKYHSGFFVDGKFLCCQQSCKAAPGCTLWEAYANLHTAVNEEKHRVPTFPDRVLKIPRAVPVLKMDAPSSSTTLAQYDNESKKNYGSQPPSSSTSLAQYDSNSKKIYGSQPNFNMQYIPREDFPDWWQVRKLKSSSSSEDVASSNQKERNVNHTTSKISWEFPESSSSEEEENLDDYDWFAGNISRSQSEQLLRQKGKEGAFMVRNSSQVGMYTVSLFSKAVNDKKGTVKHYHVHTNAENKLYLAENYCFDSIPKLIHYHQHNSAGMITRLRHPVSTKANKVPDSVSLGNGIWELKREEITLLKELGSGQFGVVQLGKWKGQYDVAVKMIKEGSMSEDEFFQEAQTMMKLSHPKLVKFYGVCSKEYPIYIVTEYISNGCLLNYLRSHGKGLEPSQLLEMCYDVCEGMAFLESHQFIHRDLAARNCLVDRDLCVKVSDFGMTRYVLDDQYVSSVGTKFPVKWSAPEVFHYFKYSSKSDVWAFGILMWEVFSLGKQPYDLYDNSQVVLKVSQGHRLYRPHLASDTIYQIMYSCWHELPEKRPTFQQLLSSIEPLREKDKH
# procedure-details: HTRF KinEASE-TK kinase assay, BMX
# Assay type: biochemical
# details: 10 uM compound, 3 h preincubation
metric-name: remaining activity at 10 µM

Here is how some compounds turned out for remaining activity at 10 µM.
compound: Nc1ncnc2c1c(-c1ccc(Oc3ccccc3)cc1)nn2CCNS(=O)(=O)c1c(F)c(F)c(F)c(F)c1OCF
remaining activity at 10 µM: < 50%
--
compound: CN(CCn1nc(-c2ccc(Oc3ccccc3)cc2)c2c(N)ncnc21)C(=O)c1c(F)c(F)c(F)c(F)c1S(N)(=O)=O
remaining activity at 10 µM: < 50%
--
compound: CS(=O)(=O)c1c(F)c(F)c(F)c(F)c1C(=O)n1ccc2c(N)ncnc21
remaining activity at 10 µM: < 50%
--
compound: C[S+]([O-])c1c(F)c(F)c(F)c(F)c1C(=O)N1CCC[C@@H](n2nc(-c3ccc(Oc4ccccc4)cc3)c3c(N)ncnc32)C1 (stereo partly shown)
remaining activity at 10 µM: < 50%
--
compound: Nc1ncnc2c1c(-c1ccc(Oc3ccccc3)cc1)nn2CCNS(=O)(=O)c1c(F)c(F)c(F)c(F)c1C(F)F
remaining activity at 10 µM: < 50%
--
compound: Nc1ncnc2c1c(-c1ccc(Oc3ccccc3)cc1)nn2[C@@H]1CCN(S(=O)(=O)c2c(F)c(F)c(F)c(F)c2OCF)C1
remaining activity at 10 µM: < 50%
--
compound: C[S@+]([O-])c1c(F)c(F)c(F)c(F)c1C(=O)N1CC(n2nc(-c3ccc(Oc4ccccc4)cc3)c3c(N)ncnc32)C1 (racemic)
remaining activity at 10 µM: < 50%
--
compound: COCCOc1ccc(Nc2ncc(F)c(Nc3cccc(NS(=O)(=O)c4c(F)c(F)c(F)c(F)c4OC(F)F)c3)n2)cc1
remaining activity at 10 µM: < 50%

// remaining activity at 10 µM lookup, key: CN(C)S(=O)(=O)c1c(F)c(F)c(F)c(F)c1C(=O)NCCn1nc(-c2ccc(Oc3ccccc3)cc2)c2c(N)ncnc21
< 50%

Same for CN(CCn1nc(-c2ccc(Oc3ccccc3)cc2)c2c(N)ncnc21)C(=O)c1c(F)c(F)c(F)c(F)c1S(=O)(=O)N(C)C
< 50%
